The measured values listed here are drawn from patent US20240368150A1.

Counter-ions that a name gives are not always drawn.
Heads up, these molecules all have EC50 values measured for primary human T-cells.
measured-parameter: EC50 (µM)

Use the examples below as a reference point.
molecule	data-value
CCn1cnc(-c2cc3c(cc2F)S(=O)(=O)C[C@H](N)C(=O)N3Cc2ccc(Cl)cc2)n1	9.37
CC(C#N)c1nnc(-c2cc3c(cc2F)S(=O)(=O)C[C@H](N)C(=O)N3Cc2ccc(Cl)cc2)o1 (stereo partly shown)	0.583
COc1ccc(CN2C(=O)[C@@H](N)CS(=O)(=O)c3cc(F)c(-c4nnc(C(C)(C)C)o4)cc32)nc1	5.2

(A) CC(C)(C)c1nc(-c2cc3c(cc2F)[S+]([O-])C[C@H](N)C(=O)N3Cc2ccc(Cl)cc2)no1 (single isomer, unassigned; epimer a) [Example 340]
(B) C#CC1(Nc2nnc(-c3cc4c(cc3F)S(=O)(=O)C[C@H](N)C(=O)N4Cc3ccc(Cl)cc3)o2)CCCCC1
Incoming: A or B : whose EC50 is greater? Identify your selection by its label.
Outgoing: A
(A: 3.08 µM, B: 1.72 µM)

(P) N[C@H]1CS(=O)(=O)c2cc(F)c(-c3nnc(N4CCC5(CC4)CC(F)(F)CN5)o3)cc2N(Cc2ccc(Cl)cc2)C1=O [Example 475, hydrochloride]
(Q) CC(C)(C)c1nc(-c2cc3c(cc2F)S(=O)(=O)C[C@H](N)C(=O)N3Cc2ccc(Cl)cc2)no1
Incoming: Which entry shows the lesser value of EC50 here, P or Q ? Reply briefly: the label of your chosen item.
Outgoing: Q

====

- Test system: primary human T-cells
- assay-info: Proliferation assay after 5 days (CellTiter-Glo, CD3 stimulation; PBS counter screen)
- Assay type: cell-based
- condition-context: Homo sapiens, T-cell, 120 h, primary human T-cells, CD3 stimulation, CellTiter-Glo after 5 days; EC50 of fitted sigmoidal curve; read-out: Tcell Proliferation CD3 EC50
measured-parameter: EC50 (µM)
Lab book: enter the figure in µM, no units written.

Check out these entries, answers already filled in.
> print(dat)
                                   compound            test.system  measured.parameter  data.value
1  N[C@H]1CS(=O)(=O)c2cc(F)c(-c3nnc(NC4CC(C(F)(F)F)C4)o3)cc2N(Cc2ccc(Cl)cc2)C1=O (some centres unmarked)  primary human T-cells                EC50        1.11
2  N[C@H]1CS(=O)(=O)c2cc(F)c(-c3nnc(C4CCC4(F)F)o3)cc2N(Cc2ccc(Cl)cc2)C1=O (some centres unmarked)  primary human T-cells                EC50       0.521
3  CN1CCC(n2nnc(-c3cc4c(cc3F)S(=O)(=O)C[C@H](N)C(=O)N4Cc3ccc(Cl)cc3)n2)C1 (some centres unmarked)  primary human T-cells                EC50        1.02
4  N[C@H]1CS(=O)(=O)c2cc(F)c(-c3nnc(C45CNCCC4C5)o3)cc2N(Cc2ccc(Cl)cc2)C1=O (some centres unmarked)  primary human T-cells                EC50        4.76
5  CCc1noc(-c2ccc3c(c2)N(Cc2ccc(Cl)cc2)C(=O)[C@@H](N)CS3(=O)=O)n1  primary human T-cells                EC50        2.69

Incoming: Would you mind telling me what EC50 value was observed for N[C@H]1CS(=O)(=O)c2cc(F)c(-c3nnc(C4(CO)CC4)o3)cc2N(Cc2ccc(Cl)cc2)C1=O ?
Outgoing: 1.06

Incoming: Look at this compound and give its reported EC50. Cc1cc(C)c(-c2nnc(-c3cc4c(cc3F)S(=O)(=O)C[C@H](N)C(=O)N4Cc3ccc(Cl)cc3)o2)cn1
Outgoing: 0.159
